target.or.test.system: Serine/threonine-protein kinase 10 (Homo sapiens);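 note: mean percent inhibition of LOK (STK10)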
conditions: at 0.1 µM
Below is a list of entries, each paired with its recorded inhibition value.
Field format: number, assumed %, no unit text.

Please indicate inhibition recorded for `CS(=O)(=O)CCNCc1ccc(-c2ccc3ncnc(Nc4ccc(OCc5cccc(F)c5)c(C(F)(F)F)c4)c3c2)o1`
3.11

Annotate the compound `COc1ccc(-c2coc3ncnc(N)c23)cc1` with its measured inhibition.
3.11

Return reported inhibition. Input compound: `COc1cc2ncn(-c3cc(O[C@H](C)c4ccccc4Cl)c(C(N)=O)s3)c2cc1OC`
99.3

Complete the entry with inhibition for `CCc1cccc(NC(=O)Nc2ccc(Oc3ccc4nc(NC(=O)OC)[nH]c4c3)cc2)c1`
46.8

Write down inhibition measured for item `O=C(Nc1n[nH]c2nc(-c3ccco3)c(Br)cc12)C1CC1`
6.48

Tell me measured inhibition for `[O-][S+]1CCN(Cc2ccc(-c3ccc4ncnc(Nc5ccc(OCc6ccccc6)c(F)c5)c4c3)o2)CC1` please.
2.71

Supply recorded inhibition for `CS(=O)(=O)CCNCc1ccc(-c2ccc3ncnc(Nc4ccc(OCc5ccccc5)c(Cl)c4)c3c2)o1` here.
1.97

Specify inhibition for `COc1ccccc1Nc1ncc(-c2ccccc2)o1` and stop.
8.13

Continuing:
Look up and state reported inhibition for `COC(=O)Nc1nc2cc(Oc3ccc(NC(=O)Nc4cccc(C(=O)O)c4)cc3)ccc2[nH]1`
0.65

Please give the documented inhibition of COc1ccc2cc(-c3c(-c4ccncc4)nc(-c4ccc([S+](C)[O-])cc4)n3C)ccc2c1 (stereo unspecified)
36

Answer with the recorded inhibition of `CCn1c(-c2nonc2N)nc2cnc(Oc3cccc(NC(=O)c4ccc(OCCN5CCOCC5)cc4)c3)cc21` only.
3.13

Using the record for `CCn1c(-c2nonc2N)nc2c(C#CC(C)(C)O)nc(OC[C@@H](N)c3ccccc3)cc21` , state its measured inhibition.
-0.81

Identify measured inhibition corresponding to `O=C1NC(=O)C(N2CCc3ccccc32)=C1c1ccc(Cl)cc1`
7.48

Return inhibition for the following compound: `Fc1cccc(COc2ccc(Nc3ncnc4cc(-c5ccc[nH]5)sc34)cc2Cl)c1`
2.11

Given the compound `O=C1NC(=O)C(c2ccc(Cl)cc2)=C1Nc1ccc(Cl)c(C(=O)O)c1` , write its reported inhibition.
-1.94

In one line, give reported inhibition of the entry `CC(=O)Nc1cccc(C#Cc2cncnc2Nc2ccc(OCc3cccc(F)c3)c(Cl)c2)n1` .
4.04

State its inhibition for this compound: `COc1cc2c(cc1Nc1nc(N3CCc4ccccc43)c3cc[nH]c3n1)N(C(=O)CN(C)C)CC2`
1.91

Give the measured inhibition for `Fc1cccc(COc2ccc(Nc3ncnc4sc(-c5cccs5)cc34)cc2Cl)c1`
2.84

Name the recorded inhibition of the compound listed here: `CCCN1CCC(Oc2cc(Nc3nc(Nc4cccc(F)c4C(N)=O)c4cc[nH]c4n3)c(OC)cc2Cl)CC1`
-0.06

State, in one line, measured inhibition of `CS(=O)(=O)CCNCc1nc(-c2ccc3ncnc(Nc4ccc(F)c(Cl)c4)c3c2)cs1`
5.44

Hello, please tell me recorded inhibition for this one: `NC(=O)c1ccc(-c2nc(-c3ccccn3)c(-c3ccc4c(c3)OCO4)[nH]2)cc1`
6.27

Given the compound `c1cnn2ncc(-c3ccnc(Nc4ccc5c(c4)OCCO5)n3)c2c1` , write its reported inhibition.
5.98

# return recorded inhibition for input `Cc1ccc(C(=O)NC2CCCCC2)cc1-c1ccc(C(=O)NCC2CC2)cc1`
7.27

State, in one line, measured inhibition of `CNC(=O)c1cncc(/C=C/c2c(Cl)cccc2Cl)c1`
6.82

Indicate its recorded inhibition; the compound in question is `CS(=O)(=O)Nc1ccc(N/C=C2\C(=O)Nc3ccccc32)cc1`
-2.57

Retrieve inhibition measured for `COc1cc2ncn(-c3cc(O[C@@H](C)c4ccccc4Cl)c(C(N)=O)s3)c2cc1OC` and print it.
54

Tell us which inhibition value is on record for `CCn1c(-c2nonc2N)nc2c(N3CCCC3)nccc21`
-0.24

Kindly indicate its recorded inhibition. Item: `NCc1ccc(-c2nc(-c3ccc(Cl)c(O)c3)c(-c3ccncc3)[nH]2)cc1`
1.42
